Values from patent US20250313535A1

# Experimental System: α4β1 integrin (Homo sapiens (Human), UniProt P05556+P13612)
# Sequence (P13612 34-1032): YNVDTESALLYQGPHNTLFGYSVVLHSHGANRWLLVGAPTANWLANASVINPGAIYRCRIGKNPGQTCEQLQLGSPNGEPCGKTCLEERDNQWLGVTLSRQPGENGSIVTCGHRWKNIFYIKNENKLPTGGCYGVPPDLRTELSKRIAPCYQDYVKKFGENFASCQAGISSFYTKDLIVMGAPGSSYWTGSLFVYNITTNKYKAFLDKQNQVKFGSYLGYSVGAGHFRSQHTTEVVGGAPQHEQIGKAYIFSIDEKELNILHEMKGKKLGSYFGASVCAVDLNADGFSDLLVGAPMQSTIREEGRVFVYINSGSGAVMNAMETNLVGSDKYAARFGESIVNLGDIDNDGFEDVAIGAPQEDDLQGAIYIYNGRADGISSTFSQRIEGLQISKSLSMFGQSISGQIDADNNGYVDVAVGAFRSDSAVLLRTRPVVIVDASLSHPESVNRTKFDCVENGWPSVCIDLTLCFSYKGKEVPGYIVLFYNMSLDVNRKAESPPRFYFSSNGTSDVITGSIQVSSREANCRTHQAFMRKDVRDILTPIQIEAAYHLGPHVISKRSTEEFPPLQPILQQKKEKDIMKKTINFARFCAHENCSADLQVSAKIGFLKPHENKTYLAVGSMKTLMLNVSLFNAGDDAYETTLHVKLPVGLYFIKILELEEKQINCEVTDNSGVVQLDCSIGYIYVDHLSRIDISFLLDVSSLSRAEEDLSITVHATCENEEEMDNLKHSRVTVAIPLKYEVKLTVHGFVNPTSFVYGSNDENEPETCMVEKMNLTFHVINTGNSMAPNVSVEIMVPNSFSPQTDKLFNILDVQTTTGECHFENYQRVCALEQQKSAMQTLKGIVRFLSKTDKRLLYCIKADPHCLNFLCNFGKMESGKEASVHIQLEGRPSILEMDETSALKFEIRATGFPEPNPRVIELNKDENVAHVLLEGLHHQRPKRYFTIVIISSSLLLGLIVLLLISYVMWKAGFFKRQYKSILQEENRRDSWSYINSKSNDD
# Sequence (P05556 21-798): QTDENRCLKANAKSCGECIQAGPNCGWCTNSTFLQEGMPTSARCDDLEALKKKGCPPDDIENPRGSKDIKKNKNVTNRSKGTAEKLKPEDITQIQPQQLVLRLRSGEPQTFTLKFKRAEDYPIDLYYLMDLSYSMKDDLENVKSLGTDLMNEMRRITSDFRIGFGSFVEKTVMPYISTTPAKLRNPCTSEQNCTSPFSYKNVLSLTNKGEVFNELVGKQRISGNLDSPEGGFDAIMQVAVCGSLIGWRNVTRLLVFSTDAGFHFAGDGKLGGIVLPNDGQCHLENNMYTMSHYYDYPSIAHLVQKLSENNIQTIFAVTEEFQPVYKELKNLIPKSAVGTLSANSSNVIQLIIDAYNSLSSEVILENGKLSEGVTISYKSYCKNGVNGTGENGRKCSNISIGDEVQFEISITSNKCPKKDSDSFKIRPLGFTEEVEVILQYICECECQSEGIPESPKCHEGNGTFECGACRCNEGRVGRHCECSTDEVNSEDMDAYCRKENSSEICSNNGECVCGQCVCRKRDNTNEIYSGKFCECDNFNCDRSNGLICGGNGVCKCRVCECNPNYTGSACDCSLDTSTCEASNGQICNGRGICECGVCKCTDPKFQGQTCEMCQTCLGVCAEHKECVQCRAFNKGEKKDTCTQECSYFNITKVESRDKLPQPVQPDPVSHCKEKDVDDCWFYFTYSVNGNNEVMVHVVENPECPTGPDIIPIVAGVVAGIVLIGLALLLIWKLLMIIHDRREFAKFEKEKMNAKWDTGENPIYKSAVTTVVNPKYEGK
# Assay Name: Integrin Adhesion Assay: Protocol 5 (VCAM-coated plate, RPMI-8866 cells with stable LOF mutation of the ITGB7 gene)
# Type: cell-based
# Test Settings: Protocol 5; RPMI-8866 cells with LOF mutation of ITGB7, VCAM; read-out: Mean IC50 α4β1 KO
# From the text: Integrin Adhesion Assay Using Genetically Modified Cells Generating Stable Cell Lines with ITGB1 or ITGB7 Knockout (Protocol 4 and Protocol 5) […] To generate an individual clones of cells deficient in either ITGB7 or ITGB1 by limiting dilution assay, the transfected cells were resuspended at 5 cells/mL and seeded in 384 well plates. Outgrowth of clones was monitored using a microscope, and 24 clones were transferred for expansion. […]
pIC50: −log10 of the molar value.
Quantity Name: pIC50

{"columns": ["Molecule", "pIC50"],
 "data": [
  ["COc1cccc(OCCN2CCCCC2)c1-c1cccc2c(C[C@H](NC(=O)c3c(C)cccc3F)C(=O)O)cccc12 [Compound 999]", "6.00 to 7.00"]
]}

Lookup: Please look up its pIC50: COc1ccc(CN2CCCC(F)C2)c(OC)c1-c1cccc2c(C[C@H](NC(=O)c3c(C)cccc3F)C(=O)O)cccc12 (stereo partly drawn) [Compound 1012]
Found: < 6.00

Lookup: Check CN(C)c1ccc2c(C(F)(F)F)c(-c3cccc4c(C[C@H](NC(=O)c5c(F)cccc5F)C(=O)O)cccc34)c(=O)n(C)c2c1 [Compound 719] too.
Found: < 6.00
